# System: NCI-H460
# PROTOCOL DETAILS: NCI tumour cell line growth inhibition, 48 h
Active and inactive are the calls of the source. Cut-off read from the data, not from the text of the source: active = GI50 up to about 1.1 µM and inactive = higher.
Outcome field: choose from active, inactive

// below: answered compounds
COMPOUND: COC(=O)C1=C(OC)[C@H]2C#C/C=C\C#C[C@@H]3Nc4c(cc(O)c5c4C(=O)c4ccccc4C5=O)[C@]24O[C@@]34[C@H]1C
TESTED ON: NCI-H460
ASSIGNED CATEGORY: active
//
COMPOUND: COc1cc2ccn3c4cc(OC)c(OC)cc4cc3c2cc1OC
TESTED ON: NCI-H460
ASSIGNED CATEGORY: inactive
//
COMPOUND: O=C1CN(c2cccc(C(F)(F)F)c2)C(=O)CN1NCNN1CC(=O)N(c2cccc(C(F)(F)F)c2)CC1=O
TESTED ON: NCI-H460
ASSIGNED CATEGORY: inactive
//
COMPOUND: C/C(=N/Nc1ccc([N+](=O)[O-])cc1[N+](=O)[O-])C(CC(C(=O)Nc1ccccc1C)/C(C)=N\Nc1ccc([N+](=O)[O-])cc1[N+](=O)[O-])C(=O)Nc1ccccc1C (stereo not given)
TESTED ON: NCI-H460
ASSIGNED CATEGORY: inactive
//
COMPOUND: CC(C)(Oc1ccc(-c2cccc3ccccc23)cc1)C(=O)O
TESTED ON: NCI-H460
ASSIGNED CATEGORY: inactive

Enquiry: For COc1cc(C2C(C(=O)Nc3ccccc3)=C(C)NC(C)=C2C(=O)Nc2ccccc2)ccc1O , what call appears in the results of this test?
Return: inactive

Enquiry: Tell me the assay call for CCCC(O)c1cn(-c2cccc(S(=O)(=O)O)c2)nn1 (stereo not given) please.
Return: inactive

Enquiry: Test call, this compound: COC1=CC(C2c3cc4c(cc3[C@@H](Nc3ccc(F)cc3)C3COC(=O)[C@H]23)OCO4)=CC(=O)C1=O (stereo not given in full)
Return: active

Enquiry: Record request — test call for CCOC(=O)/C(C#N)=C\C=C1/C=CN=C2NCCN21
Return: inactive

Enquiry: What is the recorded call for this compound in the test? COc1cc(OC(=O)c2ccccc2)cc2c1C(=O)C=CC2=O
Return: inactive

Enquiry: Test call, this compound: CCc1n[nH]c(=O)n1CC
Return: inactive

Enquiry: Any idea what this test logged for CC(C)(C)OC(=O)NCCCCC(N)C(N)=O (stereo not given) ?
Return: inactive

Enquiry: Dear all, I need the recorded test outcome for COc1ccc2c(c1)Cc1cc(/N=[N+](\[O-])c3ccc4c(c3)Cc3cc(OC)ccc3-4)ccc1-2 , thank you.
Return: inactive

Enquiry: Call for entry CC(C)(C)NNC(=O)/C(=C/c1ccc([N+](=O)[O-])cc1)NC(=O)c1ccccc1 :
Return: inactive

Enquiry: Just curious, what result did O=[N+]([O-])c1nccn1CCCNCCCn1ccnc1[N+](=O)[O-] get here?
Return: inactive

Enquiry: Per the records of this test, what outcome belongs to O=c1c2cc(Br)ccc2nc(-c2ccccc2Cl)n1NCC1(O)OCC(O)C(O)C1O (stereo not given) ?
Return: inactive

Enquiry: Name the outcome recorded for COC(=O)C1=C(O)C(O)=C(C(=O)OC)CC1 in the assay.
Return: inactive

Enquiry: // outcome(item) with item = O=C1Nc2ccccc2/C1=N/Nc1nc(-c2ccc([N+](=O)[O-])cc2)cs1
Return: inactive

Enquiry: Could you check what this test reported for CCOC(=O)C(=O)C(/C(=N/N(C)C)C(=O)Nc1ccc(C)cc1C)c1nc2ccccc2nc1O (stereo not given) ?
Return: inactive

Enquiry: Would you mind telling me which call this test gave COC(=O)n1c(=O)n(-c2ccccc2)c(=O)n1C(=O)OC ?
Return: inactive

Where these numbers come from: ChEMBL document CHEMBL1201862
